Test system: SEM cells
METHOD: cell viability relative to DMSO control; higher = less cytotoxic
EXPERIMENTAL_SETUP: RPMI 5 mM glucose + 10% FBS; 48 h; 0.0211 µM
Each entry below carries its recorded cell viability.
Only the number, expressed in %, is required.

Known cell viability results, listed for orientation:
>>> readout_value("COc1ccc(F)c(F)c1C(=O)c1cnc(NC2CCN([S+](C)(=O)[O-])CC2)nc1N")
130
>>> readout_value("NC(=O)c1cccc(-c2cc(Nc3ccc(OC(F)(F)F)cc3)ncn2)c1")
111
>>> readout_value("Clc2cccc(Cl)c2\\N=C1/NCCN1")
119
>>> readout_value("Nc1n[nH]c2nnc(-c3c(-c4ccccc4)nn4ccccc34)cc12")
121
>>> readout_value("O=C(O)CCCCCC(=O)NN=C1CCCC1")
104

Value (cell viability, SEM cells) for record `COc1ccccc1[C@H](c1cccc2ccccc12)[C@@](C)(C#N)C(=O)N1CCC(c2cccc(C(F)(F)F)c2)CC1` = 107

Considering `Nc1nc(F)nc2c1ncn2[C@@H]1O[C@H](COP(=O)(O)O)[C@@H](O)[C@@H]1O` , its cell viability with SEM cells was recorded as 92.1

Value (cell viability, SEM cells) for record CCNC(=O)CCC/C=C\C[C@@H]1[C@@H](/C=C/C(O)CCc2ccccc2)[C@@H](O)C[C@@H]1O (some centres undefined) = 98.7

Noted cell viability for `CCOC(=O)N1CCN(/[N+]([O-])=N/Oc2cc(O/N=[N+](\[O-])N3CCN(C(=O)OCC)CC3)c([N+](=O)[O-])cc2[N+](=O)[O-])CC1` , tested on SEM cells: 137

====

System: SEM cells
METHOD: cell viability relative to DMSO control; higher = less cytotoxic
EXPERIMENTAL_SETUP: RPMI 5 mM glucose + 10% FBS; 48 h; 0.19 µM
ASSAY_READOUT: cell viability (%)
Write the number in % without appending the unit.

Solved entries (count: 5):
>>> readout_value("COc1cc(NCc2ccc3nc(N)nc(N)c3c2C)cc(OC)c1OC")
93.2
>>> readout_value("O=C(/C=C/c1ccc(/C=C/C(=O)Nc2ccc(C3=NCCN3)cc2)cc1)Nc1ccc(C2=NCCN2)cc1")
99.2
>>> readout_value("COc1cc2c(cc1OC)[C@@H]1Cc3ccc(OC)c(OC)c3CN1CC2")
109
>>> readout_value("CCC(C)CCCCC(=O)N[C@@H](CCN)C(=O)NC(C(=O)N[C@H](CCN)C(=O)N[C@@H]1CCNC(=O)C([C@@H](C)O)NC(=O)[C@@H](CCN)NC(=O)[C@@H](CCN)NC(=O)[C@@H](CC(C)C)NC(=O)[C@H](Cc2ccccc2)NC(=O)[C@H](CCN)NC1=O)[C@@H](C)O (stereo partly specified)")
110
>>> readout_value("C[C@@H]1CC[C@@]2(CC[C@]3(C)\\C(=C/C[C@@H]4[C@@]5(C)CC[C@H](O)C(C)(C)[C@@H]5CC[C@@]34C)[C@@H]2[C@H]1C)C(O)=O")
123

molecule `Nc1ccc(C(=O)Nc2cccc(-c3nc(N4CCOCC4)c4oc5ncccc5c4n3)c2)cn1` , cell viability observed: 68.1

Note to self: cell viability recorded for `O=C(O)c1ccc(O)c2ncc(N3CCOCC3)cc12` was 94.1

molecule `CN1C(=O)/C(=C(NC2=CC=C(I)C=C2F)\C3=C1\N=C/N(C[C@@H](O)CO)C3=O)F` , cell viability observed: 73.2

Value of measured cell viability for the entry `OC1=CC=C(C=C1)C/2=C/C3=C(OC2)C=C(O)C=C3` : 106

Lab book: cell viability of `OC[C@H]1O[C@H](C[C@@H]1O)N2/C=C(C(=O)NC2=O)/C(F)(F)F` noted as 123

====

cell viability values for the compounds below.
System: SEM cells
METHOD: cell viability relative to DMSO control; higher = less cytotoxic
EXPERIMENTAL_SETUP: RPMI 5 mM glucose + 10% FBS; 48 h; 1.71 µM
# output: bare number, implied unit %

The following compounds have reported results that may help.
>>> readout_value("COC1=CC=C(C=C1)/C2=C(O)/C(=O)C3=C(O)C=C(O)C(=C3O2)CC=C(C)C")
92
>>> readout_value("CCn1nnc2c(N3CCOCC3)nc(-c3ccc(NC(=O)Nc4ccc(C(=O)N5CCN(C)CC5)cc4)cc3)nc21")
49.5
>>> readout_value("C[S+](=O)([O-])Oc1ccc2c(NC(N)=O)c(C(=O)c3ccc(Cl)cc3Cl)oc2c1")
114
>>> readout_value("Nc1ccc(C(=O)Nc2cccc(-c3nc(N4CCOCC4)c4oc5ncccc5c4n3)c2)cn1")
77.4
>>> readout_value("NC(=O)c1cnccn1")
121
>>> readout_value("Cc1cc(Nc2cc(N3CCN(C)CC3)nc(/C=C/c3ccccc3)n2)n[nH]1")
5.23

Please turn your attention to the following entry.
compound CCC(C)CCCCC(=O)N[C@@H](CCN)C(=O)NC(C(=O)N[C@H](CCN)C(=O)N[C@@H]1CCNC(=O)C([C@@H](C)O)NC(=O)[C@@H](CCN)NC(=O)[C@@H](CCN)NC(=O)[C@@H](CC(C)C)NC(=O)[C@H](Cc2ccccc2)NC(=O)[C@H](CCN)NC1=O)[C@@H](C)O (some centres not stated) , cell viability observed: 108

====

Test system: SEM cells
METHOD: cell viability relative to DMSO control; higher = less cytotoxic
EXPERIMENTAL_SETUP: RPMI 5 mM glucose + 10% dialyzed FBS; 48 h; 0.0211 µM
Hi! Could you tag entries with cell viability below 90% as yes, and those at or above as no? Much appreciated.

Study these solved cases before continuing.
>>> classification("Oc1ccc(OCc2ccccc2)cc1")
"no"
>>> classification("CC(C)C1CCC(C(=O)N[C@H](Cc2ccccc2)C(=O)O)CC1 (some centres not stated)")
"no"

query: Bench note: check whether `CN1C(=O)/C(=C(NC2=CC=C(I)C=C2F)\C3=C1\N=C/N(C[C@@H](O)CO)C3=O)F` shows cell viability below 90%
result: no

query: API: query returns whether the compound falls strictly under 90% in cell viability. Query: `Cc1ccc2nc(NCCN)c3ncc(C)n3c2c1`
result: no

query: Is 90% strictly greater than the compound's reported cell viability? compound: CCNC(=O)CCC/C=C\C[C@@H]1[C@@H](/C=C/C(O)CCc2ccccc2)[C@@H](O)C[C@@H]1O (some centres not stated)
result: no

query: For this compound, is cell viability lower than 90%? `C=CC(=O)Nc1cc2c(Nc3ccc(F)c(Cl)c3)ncnc2cc1C#CC(C)(C)N1CCN(C)CC1`
result: no

query: # strict comparison: is reported cell viability < 90%? input = CCC(C)CCCCC(=O)N[C@@H](CCN)C(=O)NC(C(=O)N[C@H](CCN)C(=O)N[C@@H]1CCNC(=O)C([C@@H](C)O)NC(=O)[C@@H](CCN)NC(=O)[C@@H](CCN)NC(=O)[C@@H](CC(C)C)NC(=O)[C@H](Cc2ccccc2)NC(=O)[C@H](CCN)NC1=O)[C@@H](C)O (some centres not stated)
result: yes

====

Test system: SEM cells
METHOD: AUC of viability dose-response curve (% viability x log10 dose units); higher = less sensitive
EXPERIMENTAL_SETUP: HPLM + 10% dialyzed FBS; 48 h
# AUC of viability dose-response curve values compiled below
Response field accepts a number only; no unit should be typed.

Solved entries:
>>> readout_value("Cc1c(N)nc([C@H](CC(N)=O)NC[C@@H](N)C(N)=O)nc1C(=O)N[C@H](C(=O)N[C@@H](C)[C@H](O)[C@@H](C)C(=O)N[C@@H](C(=O)NCCc1nc(-c2nc(C(=O)NCCC[S+](C)C)cs2)cs1)[C@@H](C)O)C(O[C@H]1O[C@H](CO)[C@H](O)[C@@H](O)[C@H]1O[C@H]1O[C@H](CO)[C@@H](O)[C@H](OC(N)=O)[C@@H]1O)c1c[nH]cn1 (some centres undefined)")
415
>>> readout_value("CCNC(=O)CCC/C=C\\C[C@@H]1[C@@H](/C=C/C(O)CCc2ccccc2)[C@@H](O)C[C@@H]1O (some centres undefined)")
466
>>> readout_value("Oc1cc(-c2nc(-c3ccccc3)[nH]c2-c2ccncc2)ccc1Cl")
464

--- query ---
Entry `Cc1nc(-c2ccc(OCC(C)C)c(C#N)c2)sc1C(=O)O` : AUC of viability dose-response curve on SEM cells = 475

====

Tested on: P12-Ichikawa
METHOD: cell viability relative to DMSO control; higher = less cytotoxic
EXPERIMENTAL_SETUP: RPMI 5 mM glucose + 10% FBS; 48 h; 5.12 µM
ASSAY_READOUT: cell viability (%)
// units = %; emit number, no label

Illustrative cases are given below, each with its answer.
>>> readout_value("C[C@]1(O)CC(C1)C2=NC(=C3[N]2C=CN=C3N)C4=CC5=C(C=C4)C=CC(=N5)C6=CC=CC=C6 (stereo unspecified)")
50.3
>>> readout_value("CN1C(=O)c2sccc2N(C)c2nc(Nc3ccc([S+](N)(=O)[O-])cc3)ncc21")
17.2

Summary for this compound, `O=C(O)c1cc(O)c2c(c1)C(=O)c1cccc(O)c1C2=O` : cell viability is 98

Memo: `Oc1ccc(OCc2ccccc2)cc1` , reported cell viability: 83.4

Measured cell viability of `C/C1=C2/[N]3[Co+]456([OH])<-[N]7=C1[C@@H](CCC(N)=O)C(C)(C)/C7=C/C1=[N]->4C(=C(/C)C4=[N]->5[C@@](C)([C@H]3[C@H](CC(N)=O)[C@@]2(C)CCC(=O)NC[C@@H](C)OP(=O)([O-])O[C@H]2[C@@H](O)[C@@H](n3c[n]->6c5cc(C)c(C)cc53)O[C@@H]2CO)[C@@](C)(CC(N)=O)[C@@H]4CCC(N)=O)/[C@@](C)(CC(N)=O)[C@@H]1CCC(N)=O` : 85.8

// cell viability value for `COc1c(Cl)cc2c([nH]c3cnccc32)c1NC(=O)c1cccnc1C` : 110
